- Measurement Target: T1, hIL-18 receptor (hIL-18Rα and hIL-18Rβ) (human, UniProt Q13478 19-541; O95256 20-599)
- T1 sequence (looked up) 1: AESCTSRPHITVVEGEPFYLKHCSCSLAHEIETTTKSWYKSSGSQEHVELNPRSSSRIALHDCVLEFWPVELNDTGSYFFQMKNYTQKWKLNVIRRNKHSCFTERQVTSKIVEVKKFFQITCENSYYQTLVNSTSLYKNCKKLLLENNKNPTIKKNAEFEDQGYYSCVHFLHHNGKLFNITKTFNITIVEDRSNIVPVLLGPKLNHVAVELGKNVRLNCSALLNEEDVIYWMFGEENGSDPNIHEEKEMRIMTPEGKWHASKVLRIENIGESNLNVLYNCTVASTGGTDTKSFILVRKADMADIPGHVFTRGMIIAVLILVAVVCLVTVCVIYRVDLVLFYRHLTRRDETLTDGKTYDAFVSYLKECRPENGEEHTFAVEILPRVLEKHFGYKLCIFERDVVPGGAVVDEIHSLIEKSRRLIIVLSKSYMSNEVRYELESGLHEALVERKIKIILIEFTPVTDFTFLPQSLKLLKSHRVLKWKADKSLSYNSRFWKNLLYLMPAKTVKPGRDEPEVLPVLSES
- T1 sequence (looked up) 2: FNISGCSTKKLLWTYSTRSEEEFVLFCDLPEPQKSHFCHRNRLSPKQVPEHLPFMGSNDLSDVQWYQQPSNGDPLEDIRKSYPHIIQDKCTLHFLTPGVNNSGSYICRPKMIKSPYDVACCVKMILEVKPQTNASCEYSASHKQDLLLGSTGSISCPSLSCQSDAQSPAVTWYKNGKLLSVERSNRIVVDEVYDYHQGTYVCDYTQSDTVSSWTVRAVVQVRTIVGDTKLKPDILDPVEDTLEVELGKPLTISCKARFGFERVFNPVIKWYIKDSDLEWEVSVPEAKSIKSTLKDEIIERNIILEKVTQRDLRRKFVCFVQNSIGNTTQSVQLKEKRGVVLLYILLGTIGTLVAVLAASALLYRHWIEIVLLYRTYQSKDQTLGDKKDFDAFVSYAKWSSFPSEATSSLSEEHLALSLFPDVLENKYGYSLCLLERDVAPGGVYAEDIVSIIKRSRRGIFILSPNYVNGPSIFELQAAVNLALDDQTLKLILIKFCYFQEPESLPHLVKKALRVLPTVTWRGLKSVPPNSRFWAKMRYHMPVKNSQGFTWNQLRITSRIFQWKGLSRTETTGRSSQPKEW
- Method: cell-based or functional assay
This listing pairs binders with measured EC50 (nM), hIL-18 reporter assay.
# number only, unit nM dropped from output

## Task I have this binder here, IL-18 variant polypeptide M6 (ligand) YFPKLRSKLSVIRNLNDQVLFIDQGNRPLFEDMTDSDCRDNAPRTIFIISMYKWSTPRGMAVTISVKCEKISTLSCENKIISFKEMNPPDVIKDTKSDIIFFQTSVPGHDNKMQFESSSYEGYFLACEKERDLFKLILKKEDELGDRSIMFTVQNED , and I need its recorded EC50 (nM), hIL-18 reporter assay.
## Result 0.18

## Task I have this binder here, IL-18 variant polypeptide M40 (ligand) YFDKLKSKLSVIRNLNDQVLFIDQGNRPLFEDMTDSDCRDNAPRTIFIISMYKPSSWRGMAVTISVKCEKISTLSCENKIISFKEMNPPDWIKDTKSDIIFFQRSVPGHDNKMQFESSSYEGYFLACEKERDLFKLILKKEDELGDRSIMFTVQNED , and I need its recorded EC50 (nM), hIL-18 reporter assay.
## Result 0.12

## Task I have this binder here, IL-18 variant polypeptide M18 (ligand) YFPKLRSKLSVIRNLNDQVLFIDQGNRPLFEDMTDSDCRDNAPRTIFIISMYKSSRRRGMAVTISVKCEKISTLSCENKIISFKEMNPPDGIKDTKSDIIFFQSSVPGHDNKMQFESSSYEGYFLACEKERDLFKLILKKEDELGDRSIMFTVQNED , and I need its recorded EC50 (nM), hIL-18 reporter assay.
## Result 0.58
